# Test description: in vitro
# Experimental conditions: human, WM-266 cells
Ends that are not written are not given here.
Measure name: CC50 (mg/L)
Kindly answer with a numeric value in mg/L, unit omitted.

IN: Form field: reported CC50 of CVNDTFAGSTFISDEVDGVDEVAKKKSK [Peptide-AB]
OUT: 36

----------
# System: HMEC-1 cell line
Measure name: CC50 (µg/mL)
Kindly answer with a numeric value in µg/mL, unit omitted.

IN: Form field: reported CC50 of CCCCCCCCCCCCCC(=O)O[C@@H]1[C@@H](C)[C@@]2(O)[C@@H](C=C(CO)C[C@]3(O)C(=O)C(C)=C[C@@H]23)[C@@H]2C(C)(C)[C@]12OC(C)=O [PMA, Phorbol 12-myristate 13-acetate, reference compound]
OUT: 291
